Please provide measured Kd for the entries that follow.
Target: BRD4(2) (Homo sapiens (Human))
Experiment: BROMOscan binding assay BRD4(2)
Give the number; nM is assumed, so skip it.

[ask] Tell me its Kd given Cc1sc2c(c1C)C(c1ccc(Cl)cc1)=N[C@@H](CC(=O)OC1CCC(O)CC1)c1nnc(C)n1-2 (stereo partly drawn) [Compound 1] as the entry.
[reply] 1.5

[ask] Tell me its Kd given Cc1sc2c(c1C)C(c1ccc(Cl)cc1)=N[C@@H](CC(=O)OCCCO)c1nnc(C)n1-2 [Compound 4] as the entry.
[reply] 1.3

[ask] Tell me its Kd given Cc1sc2c(c1C)C(c1ccc(Cl)cc1)=N[C@@H](CC(=O)OCCCCCCO)c1nnc(C)n1-2 [Compound 5] as the entry.
[reply] 0.4

[ask] Tell me its Kd given Cc1sc2c(c1C)C(c1ccc(Cl)cc1)=N[C@@H](CC(=O)OC/C(Br)=C(\Br)CO)c1nnc(C)n1-2 [Compound 7] as the entry.
[reply] 2.1

[ask] Tell me its Kd given Cc1sc2c(c1C)C(c1ccc(Cl)cc1)=N[C@@H](CC(=O)OCCO)c1nnc(C)n1-2 [Compound 3] as the entry.
[reply] 1.2

[ask] Tell me its Kd given Cc1sc2c(c1C)C(c1ccc(Cl)cc1)=N[C@@H](CC(=O)OCC(C)O)c1nnc(C)n1-2 (stereo partly drawn) [Compound 2] as the entry.
[reply] 1.9

* * *

Assay: IV and oral pharmacokinetics in male Sprague-Dawley rats
Type: in vivo, rat
Conditions: male, Sprague-Dawley; IV Dose (1 mg/kg), rat plasma
Experimental: Male Sprague-Dawley (˜250-325 g) with indwelling jugular vein cannulae (JVC) were purchased and allowed to acclimate to the test facility for a minimum of 2 days. All animals were fasted overnight prior to dosing. […] Oral dosing was performed using a ball-tipped gavage needle. […] Dose formulation and plasma samples were analyzed for parent drug and metabolite by Agilux Laboratories via LC/MS/MS using an RGA I assay.
Please provide measured Cmax for the entries that follow.
Give the number; ng/mL is assumed, so skip it.

[ask] Tell me its Cmax given Cc1sc2c(c1C)C(c1ccc(Cl)cc1)=N[C@@H](CC(=O)OC1CCC(O)CC1)c1nnc(C)n1-2 (stereo partly shown) as the entry.
[reply] 1490

[ask] Tell me its Cmax given Cc1sc2c(c1C)C(c1ccc(Cl)cc1)=N[C@@H](CC(=O)OCCCCCCO)c1nnc(C)n1-2 as the entry.
[reply] 1070

[ask] Tell me its Cmax given Cc1sc2c(c1C)C(c1ccc(Cl)cc1)=N[C@@H](CC(=O)OCCCO)c1nnc(C)n1-2 as the entry.
[reply] 1130

[ask] Tell me its Cmax given Cc1sc2c(c1C)C(c1ccc(Cl)cc1)=N[C@@H](CC(=O)OCC(C)O)c1nnc(C)n1-2 (stereo partly shown) as the entry.
[reply] 790

* * *

Target: BRD4(1) (Homo sapiens (Human), UniProt O60885)
Experiment: BROMOscan binding assay BRD4(1)
metric: pKd
// pKd here means minus log10 of the molar concentration (mol/L)

[ask] With BRD4(1) (Homo sapiens (Human), UniProt O60885) as the test system, provide measured pKd for this compound: Cc1sc2c(c1C)C(c1ccc(Cl)cc1)=N[C@@H](CC(=O)OC1CCC(O)CC1)c1nnc(C)n1-2 (some centres unmarked)
[reply] 8.89

[ask] With BRD4(1) (Homo sapiens (Human), UniProt O60885) as the test system, provide measured pKd for this compound: Cc1sc2c(c1C)C(c1ccc(Cl)cc1)=N[C@@H](CC(=O)OC/C(Br)=C(\Br)CO)c1nnc(C)n1-2
[reply] 8.82

[ask] With BRD4(1) (Homo sapiens (Human), UniProt O60885) as the test system, provide measured pKd for this compound: Cc1sc2c(c1C)C(c1ccc(Cl)cc1)=N[C@@H](CC(=O)OCC(C)O)c1nnc(C)n1-2 (some centres unmarked)
[reply] 8.72

[ask] With BRD4(1) (Homo sapiens (Human), UniProt O60885) as the test system, provide measured pKd for this compound: Cc1sc2c(c1C)C(c1ccc(Cl)cc1)=N[C@@H](CC(=O)OCCCO)c1nnc(C)n1-2
[reply] 8.96

[ask] With BRD4(1) (Homo sapiens (Human), UniProt O60885) as the test system, provide measured pKd for this compound: Cc1sc2c(c1C)C(c1ccc(Cl)cc1)=N[C@@H](CC(=O)OCCO)c1nnc(C)n1-2
[reply] 8.96

* * *

Test: Caco-2 permeability assay
Conditions: human, Caco-2
metric: recovery at 2 h, 10 μM (%)
Give the number; % is assumed, so skip it.

[ask] Tell me its recovery at 2 h, 10 μM given Cc1sc2c(c1C)C(c1ccc(Cl)cc1)=N[C@@H](CC(=O)OC(C)(C)C)c1nnc(C)n1-2 [(S)-JQ1, reference compound] as the entry.
[reply] 84.6

[ask] Tell me its recovery at 2 h, 10 μM given Cc1sc2c(c1C)C(c1ccc(Cl)cc1)=N[C@@H](CC(=O)OC/C(Br)=C(\Br)CO)c1nnc(C)n1-2 [Compound 7] as the entry.
[reply] 76.9

[ask] Tell me its recovery at 2 h, 10 μM given Cc1sc2c(c1C)C(c1ccc(Cl)cc1)=N[C@@H](CC(=O)OCCCO)c1nnc(C)n1-2 [Compound 4] as the entry.
[reply] 99.4

[ask] Tell me its recovery at 2 h, 10 μM given Cc1sc2c(c1C)C(c1ccc(Cl)cc1)=N[C@@H](CC(=O)OCC(O)CO)c1nnc(C)n1-2 (some centres unmarked) [Compound 6] as the entry.
[reply] 90.8

[ask] Tell me its recovery at 2 h, 10 μM given Cc1sc2c(c1C)C(c1ccc(Cl)cc1)=N[C@@H](CC(=O)OCCO)c1nnc(C)n1-2 [Compound 3] as the entry.
[reply] 88.7

[ask] Tell me its recovery at 2 h, 10 μM given Cc1sc2c(c1C)C(c1ccc(Cl)cc1)=N[C@@H](CC(=O)OCCCCCCO)c1nnc(C)n1-2 [Compound 5] as the entry.
[reply] 88.7

[ask] Tell me its recovery at 2 h, 10 μM given Cc1sc2c(c1C)C(c1ccc(Cl)cc1)=N[C@@H](CC(=O)OC1CCC(O)CC1)c1nnc(C)n1-2 (some centres unmarked) [Compound 1] as the entry.
[reply] 98.5

[ask] Tell me its recovery at 2 h, 10 μM given Cc1sc2c(c1C)C(c1ccc(Cl)cc1)=N[C@@H](CC(=O)OCC(C)O)c1nnc(C)n1-2 (some centres unmarked) [Compound 2] as the entry.
[reply] 95.3

* * *

Tested on: rat insulinoma (RIN) cell lines
Experiment: Cell Titer-Glo rat insulinoma cell assay, all four cell lines
Type: cell-based
Settings: all cell lines (RIN-14B, RIN-m5F, RIN-m, RIN-5)
Please provide measured IC50 for the entries that follow.

[ask] Tell me its IC50 given Cc1sc2c(c1C)C(c1ccc(Cl)cc1)=N[C@@H](CC(=O)OC1CCC(O)CC1)c1nnc(C)n1-2 (some centres unmarked) as the entry.
[reply] < 40 nM

[ask] Tell me its IC50 given Cc1sc2c(c1C)C(c1ccc(Cl)cc1)=N[C@@H](CC(=O)OCC(C)O)c1nnc(C)n1-2 (some centres unmarked) as the entry.
[reply] < 80 nM

* * *

Please provide measured Tmax for the entries that follow.
Assay: IV and oral pharmacokinetics in male Sprague-Dawley rats
Assay type: in vivo, rat
Conditions: male, Sprague-Dawley; PO Dose (5 mg/kg), rat plasma
Give the number; min is assumed, so skip it.

[ask] Tell me its Tmax given Cc1sc2c(c1C)C(c1ccc(Cl)cc1)=N[C@@H](CC(=O)OCCCCCCO)c1nnc(C)n1-2 as the entry.
[reply] 30

[ask] Tell me its Tmax given Cc1sc2c(c1C)C(c1ccc(Cl)cc1)=N[C@@H](CC(=O)OC1CCC(O)CC1)c1nnc(C)n1-2 (stereo partly shown) as the entry.
[reply] 60

[ask] Tell me its Tmax given Cc1sc2c(c1C)C(c1ccc(Cl)cc1)=N[C@@H](CC(=O)OCCCO)c1nnc(C)n1-2 as the entry.
[reply] 30

[ask] Tell me its Tmax given Cc1sc2c(c1C)C(c1ccc(Cl)cc1)=N[C@@H](CC(=O)OCC(C)O)c1nnc(C)n1-2 (stereo partly shown) as the entry.
[reply] 60

* * *

Assay: IV and oral pharmacokinetics in male Sprague-Dawley rats
Assay type: in vivo, rat
Conditions: male, Sprague-Dawley; IV Dose (1 mg/kg), rat plasma
metric: half-life (min)
Give the number; min is assumed, so skip it.

[ask] Tell me its half-life given Cc1sc2c(c1C)C(c1ccc(Cl)cc1)=N[C@@H](CC(=O)OCCCO)c1nnc(C)n1-2 as the entry.
[reply] 48.4

[ask] Tell me its half-life given Cc1sc2c(c1C)C(c1ccc(Cl)cc1)=N[C@@H](CC(=O)OCC(C)O)c1nnc(C)n1-2 (stereo partly shown) as the entry.
[reply] 27.4

[ask] Tell me its half-life given Cc1sc2c(c1C)C(c1ccc(Cl)cc1)=N[C@@H](CC(=O)OCCCCCCO)c1nnc(C)n1-2 as the entry.
[reply] 18.1

[ask] Tell me its half-life given Cc1sc2c(c1C)C(c1ccc(Cl)cc1)=N[C@@H](CC(=O)OC1CCC(O)CC1)c1nnc(C)n1-2 (stereo partly shown) as the entry.
[reply] 47.9
